# key: entry, value: Kp
test: Ratio of drug level in brain to plasma in DIO mouse at 30 mg/kg, po; conditions: read-out: BPR

{"entry-smiles": "O=c1cc(OCc2ccccc2)ccn1-c1ccc2c(cnn2CCN2CCCC2)c1", "Kp": 0.72}
{"entry-smiles": "Cn1c2c(c3ccc(-n4ccc(OCc5ccccc5)cc4=O)cc31)CCNC2", "Kp": 0.51}

----------
# key: entry, value: concentration at 6 h
experiment: Drug level in DIO mouse plasma at 30 mg/kg, po after 6 hrs; assay type: ADME, organism-based; parameters: dose 30 mg/kg, route oral
test-readout: concentration at 6 h (ng/mL)

{"entry-smiles": "Cn1c2c(c3ccc(-n4ccc(OCc5ccccc5)cc4=O)cc31)CCNC2", "measure-unit": "ng/mL", "endpoint-result": 8030}
{"entry-smiles": "O=c1cc(OCc2ccccc2)ccn1-c1ccc2c(cnn2CCN2CCCC2)c1", "measure-unit": "ng/mL", "endpoint-result": 1950}
{"entry-smiles": "CN1CCc2c(c3ccc(-n4ccc(OCc5ccccc5)cc4=O)cc3n2C)C1", "measure-unit": "ng/mL", "endpoint-result": 5030}

----------
Target: CYP1A2 (Homo sapiens, UniProt P05177)
Sequence (P05177 whole entry): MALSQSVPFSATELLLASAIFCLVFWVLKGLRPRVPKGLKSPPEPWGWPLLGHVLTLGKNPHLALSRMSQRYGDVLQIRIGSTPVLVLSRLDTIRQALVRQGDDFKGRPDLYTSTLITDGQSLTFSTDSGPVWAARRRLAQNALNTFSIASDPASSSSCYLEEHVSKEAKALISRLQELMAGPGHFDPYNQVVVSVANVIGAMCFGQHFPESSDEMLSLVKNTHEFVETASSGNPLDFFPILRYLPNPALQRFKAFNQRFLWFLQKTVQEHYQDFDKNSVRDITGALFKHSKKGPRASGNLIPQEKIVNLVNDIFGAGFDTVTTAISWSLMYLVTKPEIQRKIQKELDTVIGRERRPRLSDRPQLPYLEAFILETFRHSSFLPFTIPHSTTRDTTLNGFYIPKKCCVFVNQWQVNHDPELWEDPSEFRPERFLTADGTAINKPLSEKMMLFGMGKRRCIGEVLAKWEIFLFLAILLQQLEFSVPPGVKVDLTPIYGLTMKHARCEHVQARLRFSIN
Assay: Inhibition of CYP1A2
Format: ADME
test-readout: IC50

{"entry-smiles": "O=c1cc(OCc2ccccc2)ccn1-c1ccc2c(cnn2CCN2CCCC2)c1", "endpoint-result": "> 10 µM"}

----------
experiment: Drug level in DIO mouse brain at 30 mg/kg, po after 6 hrs; type: ADME, organism-based; design: dose 30 mg/kg, route oral; details: read-out: Drug uptake

{"entry-smiles": "O=c1cc(OCc2ccccc2)ccn1-c1ccc2c(cnn2CCN2CCCC2)c1", "concentration at 6 h [ng/mL]": 1380}
{"entry-smiles": "Cn1c2c(c3ccc(-n4ccc(OCc5ccccc5)cc4=O)cc31)CCNC2", "concentration at 6 h [ng/mL]": 4010}

----------
pKi: −log10 of the molar value.
These records show pKi for Melanin-concentrating hormone receptor 1 (Homo sapiens).

{"entry-smiles": "Cn1c2c(c3ccc(-n4ccc(-c5ccc(Cl)cc5)cc4=O)cc31)CNCC2", "pKi": 8.57}
{"entry-smiles": "Cn1c2c(c3ccc(-n4ccc(OCc5ccccc5)cc4=O)cc31)CN(CCO)CC2", "pKi": 8.44}
{"entry-smiles": "Cn1c2c(c3ccc(-n4ccc(OCc5ccc(C(F)(F)F)cc5)cc4=O)cc31)CNCC2", "pKi": 8.17}
{"entry-smiles": "CSc1ccc(-c2ccn(-c3ccc4c5c(n(C)c4c3)CNCC5)c(=O)c2)cc1", "pKi": 8.08}
{"entry-smiles": "COc1ccc(-c2ccn(-c3ccc4c5c(n(C)c4c3)CNCC5)c(=O)c2)c(C)c1", "pKi": 7.85}
{"entry-smiles": "Cn1c2c(c3ccc(-n4ccc(-c5ccc(C(F)(F)F)cc5)cc4=O)cc31)CCNC2", "pKi": 7.96}
{"entry-smiles": "COc1cc(Cl)ccc1-c1ccn(-c2ccc3c4c(n(C)c3c2)CCNC4)c(=O)c1", "pKi": 8.15}
{"entry-smiles": "Cn1c2c(c3ccc(-n4ccc(-c5ccccc5)cc4=O)cc31)CNCC2", "pKi": 7.82}
{"entry-smiles": "Cn1c2c(c3ccc(-n4ccc(-c5ccc(Cl)cc5Cl)cc4=O)cc31)CNCC2", "pKi": 8.14}
{"entry-smiles": "CC(=O)N1CCc2c(c3ccc(-n4ccc(OCc5ccccc5)cc4=O)cc3n2C)C1", "pKi": 6.77}
